Data provenance: PubChem BioAssay

experiment: growth modulation of vineyard yeast isolate – strain RM11-1a, OD600, basal, 24 h, primary screen (AID 1177);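 note: cultures grown under basal conditions with no added stressor; test concentration not given here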; settings: S. cerevisiae RM11-1a growth, OD600, 24 h, called active from +8 up or from −8 down
Activity calls are given as the source filed them.
Permitted responses: T for active, F for inactive

Ask: Which result was noted for this compound in the test: `[N-]=[N+]=NCc1ccccc1[C@@H]1OC(c2ccc(OCCCO)cc2)=N[C@]1(Cc1ccccc1)C(=O)O`
Reply: F

Ask: Which result was noted for this compound in the test: `C=C(C(=O)CC[C@@H](OC(=O)c1cccnc1)c1ccc(CO)o1)C(C)C`
Reply: F

Ask: Which result was noted for this compound in the test: `COc1ccc([Si](C)(C)[C@H]2[C@H](CCO)O[C@@]3(C(=O)N(Cc4ccccc4)c4ccc(N5C(=O)COc6ccccc65)cc43)[C@@H]2C)cc1`
Reply: F

Ask: Which result was noted for this compound in the test: CC(c1ccccc1)C(O)C1C=CC2C(=O)N(c3ccccc3)C(=O)C2N1Nc1ccccc1F (configuration not stated)
Reply: F

Ask: Which result was noted for this compound in the test: `O=C1O[C@H](c2ccccc2)[C@H](c2ccccc2)N2[C@H]1[C@@H](C(=O)N1CCCCCCC1)[C@]1(C(=O)Nc3ccc(C#CC4=CCCCC4)cc31)[C@H]2c1ccc(O)cc1`
Reply: F

Ask: Which result was noted for this compound in the test: O=C1NC(=O)C2C1C=CC(C(O)c1cccs1)N2Nc1ccccn1 (configuration not stated)
Reply: F

Ask: Which result was noted for this compound in the test: CN1C(=O)C2C=CC(C(O)C=Cc3ccc([N+](=O)[O-])cc3)N(N3CCCCC3)C2C1=O (configuration not stated)
Reply: F

Ask: Which result was noted for this compound in the test: `C=CCNC(=O)[C@H]1[C@@H]2C(=O)O[C@@H](c3ccccc3)[C@@H](c3ccccc3)N2[C@@H](c2ccc(O)cc2)[C@]12C(=O)Nc1ccc(C#Cc3ccc(OC)cc3)cc12`
Reply: F

Ask: Which result was noted for this compound in the test: `COc1ccc(C#Cc2ccc3c(c2)[C@]2(C(=O)N3)[C@H](c3ccc(OCCO)cc3)N3[C@H](c4ccccc4)[C@H](c4ccccc4)OC(=O)[C@H]3[C@@H]2C(=O)Nc2nc3ccccc3s2)cc1`
Reply: F

Ask: Which result was noted for this compound in the test: `COc1ccc([Si](C)(C)[C@H]2[C@H](CC(=O)N3CCC[C@H]3CO)O[C@@]3(C(=O)N(c4ccccc4)c4ccccc43)[C@@H]2C)cc1`
Reply: F

Ask: Which result was noted for this compound in the test: `Cc1ccc(S[C@]2(C(=O)NCc3ccccc3)CC(=O)N(Cc3cc(C(F)(F)F)cc(C(F)(F)F)c3)[C@@H]2c2ccc(CO)cc2)cc1`
Reply: F

Ask: Which result was noted for this compound in the test: `COc1ccc(C#Cc2ccc3c(c2)[C@]2(C(=O)N3)[C@H](C(=O)N3CCc4cc(OC)c(OC)cc4C3)[C@H]3C(=O)O[C@H](c4ccccc4)[C@H](c4ccccc4)N3[C@@H]2c2ccc(OCCO)cc2)cc1`
Reply: F

Ask: Which result was noted for this compound in the test: CCN(CC)c1ccc(N2CC=CC34O[C@@H]5/C=C\CCCOC(=O)C5[C@H]3C(=O)N(CCCO)[C@@H]4C2=O)cc1 (some centres not stated)
Reply: F

Ask: Which result was noted for this compound in the test: Cc1ccc(S(=O)(=O)N2CC(C(=O)O)=CCC2c2ccccc2)cc1 (configuration not stated)
Reply: F

Ask: Which result was noted for this compound in the test: `COCCOC(=O)N1C(=O)[C@@]2(c3cc(C#CCC(C(=O)OC)C(=O)OC)ccc31)[C@H](c1ccc(OCCO)cc1)N1[C@H](c3ccccc3)[C@H](c3ccccc3)OC(=O)[C@H]1[C@@H]2C(=O)NC[C@H](O)c1ccccc1`
Reply: F

Ask: Which result was noted for this compound in the test: `C=C[C@@H](C)[C@@H](OC(=O)Nc1ccc(OC)cc1)c1ccc(O)c2ccccc12`
Reply: T

Ask: Which result was noted for this compound in the test: `CC(C)[Si]1(C(C)C)O[C@@H](c2ccccc2)c2cc(-c3ccc(-c4ccc(Cl)c(Cl)c4)o3)nc(CCc3ccccc3)c21`
Reply: F

Ask: Which result was noted for this compound in the test: `C=C(CCCC)/C(=C/C[C@@H](OC(=O)c1ccncc1)c1ccc(CO)o1)c1cc(C(=O)OC)ccc1OC`
Reply: F

Ask: Which result was noted for this compound in the test: `CCCCC(=C=CC[C@H](O)c1ccccc1OCCO)C[C@H](O)c1cc(Cl)cc(Cl)c1O`
Reply: F

Ask: Which result was noted for this compound in the test: CS(=O)(=O)CCOC(=O)C1=CC(c2ccc(CO)cc2)=CC(c2cccs2)N(Cc2cccc(OC(F)(F)F)c2)C=C1C(=O)OCCS(C)(=O)=O (configuration not stated)
Reply: F

Ask: Which result was noted for this compound in the test: `Cc1ccc(S[C@]2(C(=O)NCCN3CCOCC3)CC(=O)N(C3CCCCC3)[C@@H]2c2ccc(CO)cc2)cc1`
Reply: F

Ask: Which result was noted for this compound in the test: `[N-]=[N+]=Nc1ccccc1[C@@H]1OC(c2ccc(OCCCO)cc2)=N[C@]1(CCS(=O)(=O)c1ccccc1)C(=O)O`
Reply: F

Ask: Which result was noted for this compound in the test: CCN(CC)c1ccc(N2CC=CC34O[C@@H]5C=CCCOC(=O)C5[C@H]3C(=O)N(CCCO)[C@@H]4C2=O)cc1 (some centres not stated)
Reply: F

Ask: Which result was noted for this compound in the test: `CC(C)(C)OC(=O)CC[C@@]1(C(N)=O)N=C(c2ccc(OCCCO)cc2)O[C@@H]1c1ccccc1N=[N+]=[N-]`
Reply: F

Ask: Which result was noted for this compound in the test: `CO[C@H]1O[C@H](CO)[C@@H](OC(=O)Nc2ccccc2-c2ccccc2)[C@H](OC(=O)Nc2ccccc2-c2ccccc2)[C@H]1OC(=O)Nc1ccccc1-c1ccccc1`
Reply: F

Ask: Which result was noted for this compound in the test: C=CCC(OC(C)=O)[C@@H]1[C@@H](N(Cc2cc3ccccc3o2)C(=O)c2cccc3ccccc23)c2cc(OCCCO)ccc2N1C(=O)Cc1ccc2ccccc2c1 (some centres not stated)
Reply: F

Ask: Which result was noted for this compound in the test: C[C@H]1C2[C@H](Cc3ccccc3)NC(=O)[C@]23C(=O)N[C@H](Cc2ccccc2)C(=O)N[C@H](Cc2ccccc2)C(=O)NC/C=C/CCC/C=C/C3[C@@H]2O[C@]12C (some centres not stated)
Reply: F
